target: mGlyT-1b (Mus musculus, UniProt P28571); test: Glycine uptake inhibition assay (mGlyT-1b); format: cell-based; conditions: Flp-in-CHO cells stably transfected with mGlyT-1b cDNA; [3H]-glycine 60 nM and 25 μM non-radioactive glycine; 20 min preincubation at 22° C.; read-out: IC50 at GlyT-1 (inhibition of glycine uptake)
Sequence (P28571 1-651 isoform P28571-2): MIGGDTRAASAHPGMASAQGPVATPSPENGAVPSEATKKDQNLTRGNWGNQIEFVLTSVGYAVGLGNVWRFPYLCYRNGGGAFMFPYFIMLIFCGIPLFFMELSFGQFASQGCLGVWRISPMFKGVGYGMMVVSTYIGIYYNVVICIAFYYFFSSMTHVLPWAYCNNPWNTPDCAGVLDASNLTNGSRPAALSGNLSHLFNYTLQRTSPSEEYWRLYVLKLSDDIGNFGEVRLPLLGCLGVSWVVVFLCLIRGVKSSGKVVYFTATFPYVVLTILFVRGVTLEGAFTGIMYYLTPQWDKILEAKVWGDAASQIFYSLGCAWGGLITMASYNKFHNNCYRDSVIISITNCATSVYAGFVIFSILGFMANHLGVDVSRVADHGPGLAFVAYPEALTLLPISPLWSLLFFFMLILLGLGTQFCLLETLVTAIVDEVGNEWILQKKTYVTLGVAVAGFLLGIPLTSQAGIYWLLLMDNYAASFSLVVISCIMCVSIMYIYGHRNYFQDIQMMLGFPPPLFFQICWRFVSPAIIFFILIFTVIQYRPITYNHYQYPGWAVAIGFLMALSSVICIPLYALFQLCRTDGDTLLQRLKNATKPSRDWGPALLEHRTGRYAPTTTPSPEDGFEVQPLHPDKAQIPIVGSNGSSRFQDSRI
measuredQuantity: IC50 (nM)
Answers are plain numbers, in nM.

Request: For the molecule shown here, Cc1ccc(N2CNC(=O)C23CCN(C2CCCCC2(O)c2ccc(F)cc2)CC3)cc1 (racemic) [Example 91] , give the reported IC50.
Result: 39

* * *

target: mGlyT-1b (Mus musculus, UniProt P28571); assay: Glycine uptake inhibition assay (mGlyT-1b); type: cell-based
measuredQuantity: pIC50
Answers are plain numbers, as −log10 of the molar value.

Each compound below has a recorded value; state its pIC50.
1. O=C1NCN(c2ccc(Cl)c(Cl)c2)C12CCN(C1CCCCC1c1ccccc1)CC2 (racemic)
2. O=C1NCN(c2ccccc2)C12CCN(C1CCOCC1(O)c1ccccc1)CC2 (racemic)
3. COc1ccc(N2CNC(=O)C23CCN(C2CCCCC2(O)c2ccc(Cl)cc2)CC3)cc1 (racemic)

Result:
7.49
7.05
7.00

Each compound below has a recorded value; state its pIC50.
1. O=C1NCN(c2ccccc2)C12CCN(C1COCCC1(O)c1ccccc1)CC2 (racemic)
2. O=C1NCN(c2ccccc2)C12CCN(C1CCCCC1(O)c1ccc(F)cc1)CC2 (racemic)

Result:
1: 7.24; 2: 7.39

Each compound below has a recorded value; state its pIC50.
1. CC(C)CCN1CNC(=O)C12CCN(C1CCCCC1c1ccccc1)CC2 (racemic)
2. O=C1NCN(c2ccc(F)cc2)C12CCN([C@H]1CCCC[C@H]1c1ccc(Cl)cc1)CC2 (racemic)
3. O=C1NCN(c2ccccc2)C12CCN(C1CCCCC1(O)c1ccncc1)CC2 (racemic)
4. Cc1ccc(C2CCCCC2N2CCC3(CC2)C(=O)NCN3c2ccc(F)cc2)cc1 (racemic)
5. O=C1NCN(c2ccc(F)cc2)C12CCN(C1CCCCC1c1ccc(F)cc1)CC2 (racemic)

Result:
1: 7.28; 2: 7.13; 3: 7.21; 4: 7.54; 5: 7.17

Each compound below has a recorded value; state its pIC50.
1. O=C1NCN(c2ccc(Cl)cc2)C12CCN(C1CCCCC1(O)c1ccc(F)cc1)CC2 (racemic)
2. O=C1NCN(c2ccc(Cl)cc2)C12CCN(C1CCCCC1(O)c1ccc(Cl)cc1)CC2 (racemic)
3. O=C1NCN(c2ccccc2)C12CCN(C1CCCCC1(O)c1ccccc1)CC2 (racemic) [Example 74]
4. O=C1NCN(c2ccccc2)C12CCN(C1CCCCC1(O)c1ccc(Cl)cc1)CC2 (racemic)

Result:
1: 7.82; 2: 7.37; 3: 7.36; 4: 7.07
